Origin of the recorded values: the supplement of paper PMC10266784

B1: library; numbered along this chain (parent)
chain: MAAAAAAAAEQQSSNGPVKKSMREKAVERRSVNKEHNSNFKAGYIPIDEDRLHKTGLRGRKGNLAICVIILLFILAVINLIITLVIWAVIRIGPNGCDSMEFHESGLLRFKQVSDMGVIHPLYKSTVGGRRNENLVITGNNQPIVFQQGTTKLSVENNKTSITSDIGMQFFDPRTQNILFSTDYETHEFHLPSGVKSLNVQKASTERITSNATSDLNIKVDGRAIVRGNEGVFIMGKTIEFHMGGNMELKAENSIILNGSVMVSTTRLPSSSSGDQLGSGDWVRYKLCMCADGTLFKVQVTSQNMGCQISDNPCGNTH

Variants of: B1
Test: SGCB cell-surface expression functional score (HA stain, bin4 vs bin1, normalised to synonymous) (log10 ratio); higher = more cell-surface SGCB (functional)
Provide the recorded SGCB cell-surface expression functional score (log10) for the entries that follow.
Numbers only.

change | test_result
E188H | -0.17
L216I | -0.71
S264M | 0.69
D115T | -1.39
S105R | -0.4
H53L | -0.05

Hey, quick one: what's SGCB cell-surface expression functional score (log10) for each of these?
1. G16V
2. G236V
3. Q303I
4. G231S
5. E133R
6. V136N
7. N199Q
8. G293P

Solution:
1: 0.38; 2: -1.25; 3: 0.25; 4: -0.88; 5: -0.14; 6: -0.01; 7: 0.86; 8: -0.23

Batch request: SGCB cell-surface expression functional score (log10) for each of the following variants.
1. V89P
2. I78G
3. H242R
4. K286V
5. G274M

Solution:
1. -0.88
2. -0.04
3. 0.39
4. 0.03
5. -0.11

Working through the 3 variants below one at a time, give SGCB cell-surface expression functional score (log10) for each.
1. N141L
2. K20L
3. V283W

Solution:
1. -0.45
2. 0.12
3. -1.26
